Assay: chemical genetic growth profiling, strain panel (AID 1159580);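 further: tested at 20 µM; growth read once vehicle control cultures reached saturation at 30 °C; 1 = growth at the plate median or of vehicle wells; lower values mean less growth of the strain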
Conditions: S. cerevisiae deletion strains, growth OD, locus YPL241C, strain CIN2, active compounds read low
In all, about 5,500 compounds went through this assay and about 2,000 (36%) were called active. Roughly 18% stayed inconclusive and do not appear here. The list shows a part of the results.
reported.endpoint: normalized growth

Guide cases for normalized growth, answers given:
compound: NS(=O)(=O)c1cc2c(cc1Cl)NCNS2(=O)=O
data.value: 1.01 (inactive)

compound: Clc1cc(Cl)cc(Br)c1
data.value: 1.04 (inactive)

compound: CC(C)(C)S(=O)(=O)c1cnc(N)nc1N
data.value: 1.02 (inactive)

compound: COC(=O)[C@H](NC(=O)c1cc(-c2ccccc2)nc2ccccc12)c1ccccc1
data.value: 0.999 (inactive)

compound: CCCCC#Cc1ccc(C(=O)NNC(=O)Nc2cc(Cl)cc(Cl)c2)o1
data.value: 1.02 (inactive)

What does the record list as normalized growth for CCOC(=O)c1cnc(SCC(=O)c2ccc(Cl)cc2Cl)[nH]1 ?
1.01 (inactive)

What does the record list as normalized growth for COC(=O)C(Cc1c[nH]c2ccccc12)NC(=O)c1c(Cl)cccc1Cl (stereo unspecified) ?
0.999 (inactive)

What does the record list as normalized growth for Nc1c(Cl)cc(C(=O)Nc2cc(Cl)cc(Cl)c2)cc1Cl ?
0.821 (active)

What does the record list as normalized growth for CC(=O)OCC1=C(C(=O)O)N2C(=O)[C@@H](NC(=O)CSc3ccncc3)[C@H]2SC1 ?
0.988 (inactive)

What does the record list as normalized growth for N#Cc1cc(I)c(C#N)c(I)c1 ?
0.979 (inactive)

What does the record list as normalized growth for C=C[C@H]1CN2CC[C@H]1C[C@H]2[C@H](O)c1ccnc2ccccc12 ?
0.992 (inactive)
